# Study system: human GR (Homo sapiens, UniProt P04150)
# Construct: U937 cells contain an endogenous glucocorticoid receptor (GR); endogenous in cells; host or cells: U937 cells stably transfected with the TNF-alpha promoter/beta-lactamase reporter
# Method: Transrepression Assay (GITAR), TNFα-β-lactamase reporter gene in U937 cells
# Assay type: cell-based
# Recorded conditions: U-937, U937 cells; activity repressed by 100 nM dexamethasone = 100%; Table 1; read-out: Transrepression U937 Cells GITAR Emax
In plain terms, low Emax, meaning strictly below 40%, gives rule met, and everything else gives rule not met.

[[record]]
molecule = "CCN(CC)C(=O)[C@H]1CCC2=Cc3c(cnn3-c3ccc(F)cc3)C[C@@]21C"
study_system = "human GR (Homo sapiens, UniProt P04150)"
assigned_label = "rule met"

[[record]]
molecule = "COc1cc(CN(CCO)C(=O)[C@H]2CCC3=Cc4c(cnn4-c4ccc(F)cc4)C[C@@]32C)cc(OC)c1"
study_system = "human GR (Homo sapiens, UniProt P04150)"
assigned_label = "rule not met"

[[record]]
molecule = "CCN(CCC(F)(F)F)C(=O)[C@H]1CCC2=Cc3c(cnn3-c3ccc(F)cc3)C[C@@]21C"
study_system = "human GR (Homo sapiens, UniProt P04150)"
assigned_label = "rule not met"

[[record]]
molecule = "C[C@]12Cc3cnn(-c4ccc(F)cc4)c3C=C1CC[C@@H]2C(=O)Nc1ccccc1S(N)(=O)=O"
study_system = "human GR (Homo sapiens, UniProt P04150)"
assigned_label = "rule met"

[[record]]
molecule = "CC(C)CN(CC(O)C(F)(F)F)C(=O)[C@H]1CCC2=Cc3c(cnn3-c3ccc(F)cc3)C[C@@]21C (stereo partly shown)"
study_system = "human GR (Homo sapiens, UniProt P04150)"
assigned_label = "rule not met"

[[record]]
molecule = "C[C@]12Cc3cnn(-c4ccccc4)c3C=C1CC[C@@H]2C(=O)N(CC1CC1)CC(O)C(F)(F)F (stereo partly shown)"
study_system = "human GR (Homo sapiens, UniProt P04150)"
assigned_label = "rule not met"

[[record]]
molecule = "CCCN(CC(O)C(F)(F)F)C(=O)[C@H]1CCC2=Cc3c(cnn3-c3ccc(F)cc3)C[C@@]21C (stereo partly shown)"
study_system = "human GR (Homo sapiens, UniProt P04150)"
assigned_label = "rule not met"

[[record]]
molecule = "CN(CC(O)C(F)(F)F)C(=O)[C@H]1CCC2=Cc3c(cnn3-c3ccc(F)cc3)C[C@@]21C (stereo partly shown)"
study_system = "human GR (Homo sapiens, UniProt P04150)"
assigned_label = "rule not met"

[[record]]
molecule = "C[C@]12Cc3cnn(-c4ccc(F)cc4)c3C=C1CC[C@@H]2C(=O)N1CCCC(CCc2ccccc2)C1 (stereo partly shown)"
study_system = "human GR (Homo sapiens, UniProt P04150)"
assigned_label = "rule met"

[[record]]
molecule = "CCCCN(CC=O)C(=O)[C@H]1CCC2=Cc3c(cnn3-c3ccc(F)cc3)C[C@@]21C"
study_system = "human GR (Homo sapiens, UniProt P04150)"
assigned_label = "rule not met"

[[record]]
molecule = "CCCN(CCC)C(=O)[C@H]1CCC2=Cc3c(cnn3-c3ccc(F)cc3)C[C@@]21C"
study_system = "human GR (Homo sapiens, UniProt P04150)"
assigned_label = "rule not met"

[[record]]
molecule = "C[C@]12Cc3cnn(-c4ccc(F)cc4)c3C=C1CC[C@@H]2C(=O)N(CC1CCC1)CC1CCCO1 (stereo partly shown)"
study_system = "human GR (Homo sapiens, UniProt P04150)"
assigned_label = "rule met"


* * *

# Study system: Glucocorticoid Receptor (Homo sapiens, UniProt P04150)
# Construct: These cells express large amount of the GR and are very responsive to GC treatment; endogenous in cells; host or cells: A549 cells transiently transfected with the MMTV-LUC reporter
# Sequence (P04150 1-777): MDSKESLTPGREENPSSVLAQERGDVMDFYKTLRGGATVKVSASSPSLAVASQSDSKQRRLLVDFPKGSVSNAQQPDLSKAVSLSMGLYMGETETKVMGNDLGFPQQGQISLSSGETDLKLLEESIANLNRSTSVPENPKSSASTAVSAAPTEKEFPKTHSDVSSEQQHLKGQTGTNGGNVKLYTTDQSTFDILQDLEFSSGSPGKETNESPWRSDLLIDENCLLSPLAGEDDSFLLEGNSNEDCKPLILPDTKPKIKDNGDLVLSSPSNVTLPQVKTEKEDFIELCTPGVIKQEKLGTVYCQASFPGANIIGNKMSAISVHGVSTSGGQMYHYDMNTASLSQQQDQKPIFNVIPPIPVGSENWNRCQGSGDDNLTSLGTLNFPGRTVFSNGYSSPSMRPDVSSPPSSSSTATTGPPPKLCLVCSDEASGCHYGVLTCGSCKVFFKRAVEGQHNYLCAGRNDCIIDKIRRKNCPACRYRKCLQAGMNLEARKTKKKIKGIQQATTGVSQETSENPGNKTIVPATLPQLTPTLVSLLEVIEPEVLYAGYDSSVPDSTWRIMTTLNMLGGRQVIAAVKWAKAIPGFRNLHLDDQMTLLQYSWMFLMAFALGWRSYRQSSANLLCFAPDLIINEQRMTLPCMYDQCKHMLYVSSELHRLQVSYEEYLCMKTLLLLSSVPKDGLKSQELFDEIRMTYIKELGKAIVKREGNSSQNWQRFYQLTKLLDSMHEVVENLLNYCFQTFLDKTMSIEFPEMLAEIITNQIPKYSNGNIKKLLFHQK
# Method: Trans-Activation Modulation of Glucocorticoid Receptor (GRAMMER), MMTV-LUC reporter gene in A549 cells
# Type: cell-based
# Recorded conditions: A549, A549 cells; Emax relative to 300 nM dexamethasone; Table 1; read-out: Transactivation A549 Cells GRAMMER Emax
Quantity kind: Emax (%)

[[record]]
molecule = "CCCN(CCC(F)(F)F)C(=O)[C@H]1CCC2=Cc3c(cnn3-c3ccc(F)cc3)C[C@@]21C"
study_system = "Glucocorticoid Receptor (Homo sapiens, UniProt P04150)"
quantity_kind = "Emax"
readout_unit = "%"
observed_measurement = 68

[[record]]
molecule = "C[C@]12Cc3cnn(-c4ccc(F)cc4)c3C=C1CC[C@@H]2C(=O)N(CCO)Cc1ccccc1F"
study_system = "Glucocorticoid Receptor (Homo sapiens, UniProt P04150)"
quantity_kind = "Emax"
readout_unit = "%"
observed_measurement = 9.3

[[record]]
molecule = "CCN(CC(O)C(F)(F)F)C(=O)[C@H]1CCC2=Cc3c(cnn3-c3ccc(F)cc3)C[C@@]21C (stereo partly shown)"
study_system = "Glucocorticoid Receptor (Homo sapiens, UniProt P04150)"
quantity_kind = "Emax"
readout_unit = "%"
observed_measurement = 71.7

[[record]]
molecule = "CCCN(C[C@H](C)O)C(=O)[C@H]1CCC2=Cc3c(cnn3-c3ccc(F)cc3)C[C@@]21C"
study_system = "Glucocorticoid Receptor (Homo sapiens, UniProt P04150)"
quantity_kind = "Emax"
readout_unit = "%"
observed_measurement = 72.8


* * *

# Study system: human GR (Homo sapiens, UniProt P04150)
# Construct: U937 cells contain an endogenous glucocorticoid receptor (GR); endogenous in cells; host or cells: U937 cells stably transfected with the TNF-alpha promoter/beta-lactamase reporter
# Method: Transrepression Assay (GITAR), TNFα-β-lactamase reporter gene in U937 cells
# Type: cell-based
# Recorded conditions: U-937, U937 cells; activity repressed by 100 nM dexamethasone = 100%; Table 1; read-out: Transrepression U937 Cells GITAR Emax
Classification field: enter Y for Emax values not below 40%, N for values below it.

[[record]]
compound = "CCCN(CCO)C(=O)[C@H]1CCC2=Cc3c(cnn3-c3ccc(F)cc3)C[C@@]21C"
study_system = "human GR (Homo sapiens, UniProt P04150)"
assigned_label = "N"

[[record]]
compound = "C[C@H](O)CN(CCc1ccccc1F)C(=O)[C@H]1CCC2=Cc3c(cnn3-c3ccc(F)cc3)C[C@@]21C"
study_system = "human GR (Homo sapiens, UniProt P04150)"
assigned_label = "Y"

[[record]]
compound = "C[C@]12Cc3cnn(-c4ccc(F)cc4)c3C=C1CC[C@@H]2C(=O)N1CCCCC1CCc1ccccc1 (stereo partly drawn)"
study_system = "human GR (Homo sapiens, UniProt P04150)"
assigned_label = "N"

[[record]]
compound = "CC1CC(C)CN(C(=O)[C@H]2CCC3=Cc4c(cnn4-c4ccc(F)cc4)C[C@@]32C)C1 (stereo partly drawn)"
study_system = "human GR (Homo sapiens, UniProt P04150)"
assigned_label = "Y"

[[record]]
compound = "C[C@]12Cc3cnn(-c4ccc(F)cc4)c3C=C1CC[C@@H]2C(=O)N(CCO)Cc1csc2ccc(Cl)cc12"
study_system = "human GR (Homo sapiens, UniProt P04150)"
assigned_label = "N"

[[record]]
compound = "COCCN(Cc1ccc(OC)cc1)C(=O)[C@H]1CCC2=Cc3c(cnn3-c3ccc(F)cc3)C[C@@]21C"
study_system = "human GR (Homo sapiens, UniProt P04150)"
assigned_label = "N"

[[record]]
compound = "CCCN(CC1CC1)C(=O)[C@H]1CCC2=Cc3c(cnn3-c3ccc(F)cc3)C[C@@]21C"
study_system = "human GR (Homo sapiens, UniProt P04150)"
assigned_label = "Y"

[[record]]
compound = "CCN(CC(O)C(F)(F)F)C(=O)[C@H]1CCC2=Cc3c(cnn3-c3ccc(F)cc3)C[C@@]21C (stereo partly drawn)"
study_system = "human GR (Homo sapiens, UniProt P04150)"
assigned_label = "Y"

[[record]]
compound = "CCCN(CC)C(=O)[C@H]1CCC2=Cc3c(cnn3-c3ccc(F)cc3)C[C@@]21C"
study_system = "human GR (Homo sapiens, UniProt P04150)"
assigned_label = "N"

[[record]]
compound = "COc1ccccc1CN(C)C(=O)[C@H]1CCC2=Cc3c(cnn3-c3ccc(F)cc3)C[C@@]21C"
study_system = "human GR (Homo sapiens, UniProt P04150)"
assigned_label = "N"

[[record]]
compound = "CCCCN(CC(O)C(F)(F)F)C(=O)[C@H]1CCC2=Cc3c(cnn3-c3ccccc3)C[C@@]21C (stereo partly drawn)"
study_system = "human GR (Homo sapiens, UniProt P04150)"
assigned_label = "Y"

[[record]]
compound = "CCCCN(CC)C(=O)[C@H]1CCC2=Cc3c(cnn3-c3ccc(F)cc3)C[C@@]21C"
study_system = "human GR (Homo sapiens, UniProt P04150)"
assigned_label = "Y"

[[record]]
compound = "C[C@]12Cc3cnn(-c4ccc(F)cc4)c3C=C1CC[C@@H]2C(=O)N1CCCC(=O)CC1"
study_system = "human GR (Homo sapiens, UniProt P04150)"
assigned_label = "N"

[[record]]
compound = "CN(CCC(F)(F)F)C(=O)[C@H]1CCC2=Cc3c(cnn3-c3ccc(F)cc3)C[C@@]21C"
study_system = "human GR (Homo sapiens, UniProt P04150)"
assigned_label = "Y"

[[record]]
compound = "C[C@]12Cc3cnn(-c4ccc(F)cc4)c3C=C1CC[C@@H]2C(=O)N(CCO)CC(O)C(F)(F)F (stereo partly drawn)"
study_system = "human GR (Homo sapiens, UniProt P04150)"
assigned_label = "Y"


src = patent US8338472B2
